Biological target: CCL2_HUMAN (Homo sapiens, UniProt P13500)
Sequence (P13500 24-99): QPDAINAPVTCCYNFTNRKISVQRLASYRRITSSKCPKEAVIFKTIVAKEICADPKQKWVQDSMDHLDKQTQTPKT
Assay: Biolayer interferometry (BLI) binding
pKd: −log10 of the molar value.
recorded metric: pKd

1. P1180_AMBTR: tick CKBP, Amblyomma triste (protein, Amblyomma triste) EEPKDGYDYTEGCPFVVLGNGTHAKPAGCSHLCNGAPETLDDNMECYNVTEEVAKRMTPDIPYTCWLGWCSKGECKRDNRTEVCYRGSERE ... 7.28
2. P974_AMBCA: tick CKBP, Amblyomma cajennense; ACA-01 stated identical (protein, Amblyomma cajennense, tick CKBP, Amblyomma cajennense; ACA-01 stated identical) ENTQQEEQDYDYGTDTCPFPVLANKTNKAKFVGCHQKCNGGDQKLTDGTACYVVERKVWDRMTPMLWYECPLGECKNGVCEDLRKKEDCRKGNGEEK ... 7.03
3. P985_AMBPA: tick CKBP, Amblyomma parvum (protein, listed as Amblyomma parvum) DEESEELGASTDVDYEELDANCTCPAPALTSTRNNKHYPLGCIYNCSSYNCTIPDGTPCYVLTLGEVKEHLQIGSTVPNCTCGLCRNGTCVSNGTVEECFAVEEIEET ... 7.77
